- target or system: HLA-A*69:01
- experiment description: IEDB peptide-MHC binding, purified MHC/direct/fluorescence; filed as Kd, often an IC50 or EC50 that approximates it; bounds were set here for any values at or beyond the usual limits of such assays
- settings: source organism: Influenza A virus (A/swine/Chiai/77-10/2001(H3N1))
recorded endpoint: Kd

Q) Look up Kd: VSFDQNLDY
A) ≥ 20 µM

====

For each record, write down the corresponding pKd.
- target or system: HLA-A*01:01
- experiment description: IEDB peptide-MHC binding, purified MHC/competitive/radioactivity; filed as Kd, often an IC50 or EC50 that approximates it; bounds were set here for any values at or beyond the usual limits of such assays
- settings: source organism: Mammarenavirus brazilense
Kindly note that pKd refers to -log10 of the concentration in mol/L and answer with the value alone.

Q) Look up pKd: TERSASGGVY
A) 5.77

Q) Entry to check: KTLHSSVQSY
A) 5.31

Sourced from the Immune Epitope Database (IEDB)
